# experimentSummary: qHTS assay to test for compound auto fluorescence at 590 nm (red) in HepG2 cells (AID 720674); note: % is set by controls: 0 for no effect and ±100 for the full control effect
# conditionsUsed: HepG2 autofluorescence, red 540/590 nm, 1 h; series mostly up to 91.3 µM
# Source text: U.S. Tox21 Program National Center for Advancing Translational Sciences [NCATS] NIH Chemical Genomics Center [NCGC] U.S. Environmental Protection Agency [EPA] National Institutes of Environmental Health Sciences [NIEHS] National Toxicology Program [NTP] U.S. Food and Drug Administration [FDA] Tox21 Assay Overview: Compound auto fluorescence often interferes with screening of the compound library against various biological targets and signaling pathways. […] This assay includes the red fluorescence data. […]
Calls of active or inactive are those of the source. Calls come from the whole dose curve; as a rule, active = well fitted curve in the direction sought with a large enough effect in the repeat runs; inconclusive = weak or mixed curves; inactive = flat fitted curve, though single readings scatter.
assayEndpoint: fluorescence, relative to Rose Bengal

structure=Nc1ccc(S(=O)(=O)Nc2ccccn2)cc1 valueobserved="0.667% [at 18.6 µM] (inactive)"
structure=CN(C1CCCCC1)S(=O)(=O)c1ccccc1N valueobserved=inactive
structure=CCOC(=O)CC(CC(=O)OCC)(OC(C)=O)C(=O)OCC valueobserved=inactive
structure=NC(=O)C1(N2CCCCC2)CCN(CCCC(=O)c2ccc(F)cc2)CC1 valueobserved=inactive

Next up:
input: Entry `C[C@H](CCC(=O)NCC(=O)O)[C@H]1CC[C@H]2[C@@H]3[C@H](O)C[C@@H]4C[C@H](O)CC[C@]4(C)[C@H]3C[C@H](O)[C@]12C` has what fluorescence, relative to Rose Bengal?
output: inactive

---

# experimentSummary: qHTS assay to test for compound auto fluorescence at 590 nm (red) in HEK293 cell free culture (AID 720683); note: % is set by controls: 0 for no effect and ±100 for the full control effect
# conditionsUsed: cell-free medium autofluorescence, Ex540/Em590 red; series mostly up to 91.3 µM
Activity calls are given as the source filed them. Calls follow the shape of the dose curve; as a rule, active = well fitted curve in the direction sought with a large enough effect in the repeat runs; inconclusive = weak or mixed curves; inactive = flat fitted curve, though single readings scatter.
assayEndpoint: fluorescence, % of fluorescent control

Use these answered entries as a reference point.
molecule=OC[C@@H](O)[C@H](O)[C@@H](O)[C@@H](O)CO valueobserved=inactive
molecule=N#CCCOCCOCCC#N valueobserved=inactive
molecule=NC(=O)NC(=O)Cc1ccccc1 valueobserved=inactive
molecule=CC(=O)OC(C)(C)Cc1ccccc1 valueobserved=inactive
molecule=C[C@@H]1C[C@H]2[C@@H]3C[C@H](F)C4=CC(=O)C=C[C@]4(C)[C@@]3(F)[C@@H](O)C[C@]2(C)[C@@]1(O)C(=O)CO valueobserved="-0.0134% [at 18.6 µM] (inactive)"
molecule=CC(C)(C)c1ccc(C=O)cc1 valueobserved=inactive

input: // fluorescence, % of fluorescent control lookup, key: `CCCCCCCC[Si](OCC)(OCC)OCC`
output: inactive

input: Reported fluorescence, % of fluorescent control, molecule `NCCc1ccn[nH]1` : ____
output: -0.0073% [at 18.6 µM] (inactive)

---

# experimentSummary: qHTS assay to test for compound auto fluorescence at 460 nm (blue) in HepG2 cells (AID 720687); note: % is set by controls: 0 for no effect and ±100 for the full control effect
# conditionsUsed: autofluorescence 405/460 nm, 1 h; series mostly up to 91.3 µM
Calls of active or inactive are those of the source. The call rests on the fitted dose curve; in most records, active means well fitted curve in the direction sought with a large enough effect in the repeat runs; inconclusive means weak or mixed curves; inactive means flat fitted curve, though single readings scatter.
assayEndpoint: fluorescence, % of fluorescent control

structure=CCc1nccnc1C assayendpoint="fluorescence, % of fluorescent control" valueobserved=inactive
structure=CCOC(=O)CCc1ccccc1 assayendpoint="fluorescence, % of fluorescent control" valueobserved=inactive
structure=C[C@@H]1C[C@H]2[C@@H]3C[C@H](F)C4=CC(=O)C=C[C@]4(C)[C@@]3(F)[C@@H](O)C[C@]2(C)[C@@]1(O)C(=O)CO assayendpoint="fluorescence, % of fluorescent control" valueobserved="-0.0249% [at 18.6 µM] (inactive)"
structure=O=C(O)Cc1cccc(-c2cc(CCCCCCc3ccc(O[C@H]4O[C@H](CO)[C@@H](O)[C@H](O)[C@@H]4O)c(-c4cccc(CC(=O)O)c4)c3)ccc2O[C@H]2O[C@H](CO)[C@@H](O)[C@H](O)[C@@H]2O)c1 assayendpoint="fluorescence, % of fluorescent control" valueobserved=inactive
structure=COc1cccc2sc(N)nc12 assayendpoint="fluorescence, % of fluorescent control" valueobserved=inactive

input: Using the record for `COc1ccc(OC)c(NC(=O)CC(C)=O)c1` , report its fluorescence, % of fluorescent control.
output: inactive

input: Using the record for `C1=C\CC/C=C\CC/1` , report its fluorescence, % of fluorescent control.
output: inactive

input: Endpoint output: fluorescence, % of fluorescent control of `OC(CCN1CCCCC1)(c1ccccc1)c1ccccc1` . Value?
output: inactive
